System: RAW 264.7 macrophages
Test: SAFIRE macrophage assay: host toxicity (adherent macrophage count, morphology)
Format: cell-based
Settings: 25 uM compound; n=1; DMSO solvent control = 100
Procedure: In SAFIRE, we used MATLAB software to count the number of macrophages that remain adherent and retain the red fluorescence of MitoTracker, an indicator of voltage across the mitochondrial inner membrane. […] Non-toxic analogs that reduced bacterial load by at least 60% at 5 µM and 25 µM in SAFIRE, as compared with DMSO, progressed and were evaluated in SAFIRE across eight or more concentrations, ranging from 0.001 µM to 50 µM (n = 2). […]
Form field: 25 uM Avg Cell # Score (one value per entry).
# output: bare number, no unit

compound | measured-target | reported-result
N[C@H]1CCN(C[C@@H](O)COc2ccc(Cl)c(Cl)c2)C1 [CU240] | RAW 264.7 macrophages | 105
OC(CN[C@H]1[C@@H]2CNC[C@@H]21)COc1ccc(Cl)c(Cl)c1 (stereo partly shown) [CU236] | RAW 264.7 macrophages | 99

stdin: Give the measured 25 uM Avg Cell # Score of N[C@@H]1CCN(C[C@H](O)COc2ccc(Cl)c(Cl)c2)C1 [CU237] .
stdout: 107

stdin: Give the measured 25 uM Avg Cell # Score of NCCC1CCN(CC(O)COc2cc(Cl)cc(Cl)c2)C1 (stereo not shown) [CU252] .
stdout: 117

stdin: Give the measured 25 uM Avg Cell # Score of CC1(N)CCN(CC(O)COc2ccc(Cl)c(Cl)c2)CC1 (stereo not shown) [CU235] .
stdout: 84

stdin: Give the measured 25 uM Avg Cell # Score of N[C@H]1CC[C@@H](NCC(O)COc2ccc(Cl)c(Cl)c2)CC1 (stereo partly shown) [CU245] .
stdout: 103

stdin: Give the measured 25 uM Avg Cell # Score of NC1CCN(CC(O)COc2ccccc2C(F)(F)F)CC1 (stereo not shown) [CU233] .
stdout: 104

---

Test system: RAW 264.7 macrophages
Test: SAFIRE macrophage assay: host toxicity (adherent macrophage count, morphology)
Type: cell-based
Details: 5 uM
Method: In SAFIRE, we used MATLAB software to count the number of macrophages that remain adherent and retain the red fluorescence of MitoTracker, an indicator of voltage across the mitochondrial inner membrane. […] Non-toxic analogs that reduced bacterial load by at least 60% at 5 µM and 25 µM in SAFIRE, as compared with DMSO, progressed and were evaluated in SAFIRE across eight or more concentrations, ranging from 0.001 µM to 50 µM (n = 2). […]
Just a reminder that ties go to NOT MET: only 5 uM Avg Cell # Score strictly below 100 counts as MET.

compound | cat
N[C@H]1CC[C@H](NCC(O)COc2cc(Cl)cc(Cl)c2)CC1 (stereo partly shown) [CU217] | NOT MET
NC(=O)C1CCN(CC(O)COc2ccc(Cl)c(Cl)c2)C1 (stereo not shown) [CU065] | MET
OC(COc1ccc(Cl)c(Cl)c1)CN1CCC2(CCO2)CC1 (stereo not shown) [CU229] | NOT MET
NC(=O)N1CCN(CC(O)COc2ccc(Cl)c(Cl)c2)CC1 (stereo not shown) [CU067] | MET
OC(COc1c(Cl)cccc1Cl)CN1CCC(Nc2nccc(C(F)(F)F)n2)CC1 (stereo not shown) [CU109] | MET

stdin: A record lists O=C(CCOc1ccc(Cl)c(Cl)c1)N1CCC(Nc2nccc(C(F)(F)F)n2)C1 (stereo not shown) [CU111] . Is its 5 uM Avg Cell # Score below 100?
stdout: MET

stdin: A record lists OC(COc1ccc(Cl)c(Cl)c1)CN1CCCN(c2nccc(C(F)(F)F)n2)CC1 (stereo not shown) [CU055] . Is its 5 uM Avg Cell # Score below 100?
stdout: MET

stdin: A record lists COC(=O)c1ccc(OCC(O)CN2CCC(Nc3nccc(C(F)(F)F)n3)C2)cc1 (stereo not shown) [CU091] . Is its 5 uM Avg Cell # Score below 100?
stdout: MET

stdin: A record lists CN(C)C(=O)C1CCN(CC(O)COc2ccc(Cl)c(Cl)c2)CC1 (stereo not shown) [CU058] . Is its 5 uM Avg Cell # Score below 100?
stdout: MET

stdin: A record lists NC1CCN(C[C@@H](O)COc2ccc(Cl)c(Cl)c2)C1 (stereo partly shown) [CU161] . Is its 5 uM Avg Cell # Score below 100?
stdout: NOT MET

stdin: A record lists OC(COc1ccccc1Cl)CN1CCC(Nc2ncccn2)CC1 (stereo not shown) [CU049] . Is its 5 uM Avg Cell # Score below 100?
stdout: MET

stdin: A record lists OC(COc1cccc(C(F)(F)F)c1)CN1CCC(Nc2nccc(C(F)(F)F)n2)CC1 (stereo not shown) [CU103] . Is its 5 uM Avg Cell # Score below 100?
stdout: MET

---

biological target: E. coli AcrB (Escherichia coli); construct: 4xHis (C); made in house; host or cells: E. coli BL21-Gold (DE3), plasmid derived from pSPORT1; test: Single-particle cryo-EM of AcrB-EPM complexes in nanodiscs; conditions: "binding" protomer of the AcrB trimer; 10 µM EPM
Sequence (P31224 whole entry): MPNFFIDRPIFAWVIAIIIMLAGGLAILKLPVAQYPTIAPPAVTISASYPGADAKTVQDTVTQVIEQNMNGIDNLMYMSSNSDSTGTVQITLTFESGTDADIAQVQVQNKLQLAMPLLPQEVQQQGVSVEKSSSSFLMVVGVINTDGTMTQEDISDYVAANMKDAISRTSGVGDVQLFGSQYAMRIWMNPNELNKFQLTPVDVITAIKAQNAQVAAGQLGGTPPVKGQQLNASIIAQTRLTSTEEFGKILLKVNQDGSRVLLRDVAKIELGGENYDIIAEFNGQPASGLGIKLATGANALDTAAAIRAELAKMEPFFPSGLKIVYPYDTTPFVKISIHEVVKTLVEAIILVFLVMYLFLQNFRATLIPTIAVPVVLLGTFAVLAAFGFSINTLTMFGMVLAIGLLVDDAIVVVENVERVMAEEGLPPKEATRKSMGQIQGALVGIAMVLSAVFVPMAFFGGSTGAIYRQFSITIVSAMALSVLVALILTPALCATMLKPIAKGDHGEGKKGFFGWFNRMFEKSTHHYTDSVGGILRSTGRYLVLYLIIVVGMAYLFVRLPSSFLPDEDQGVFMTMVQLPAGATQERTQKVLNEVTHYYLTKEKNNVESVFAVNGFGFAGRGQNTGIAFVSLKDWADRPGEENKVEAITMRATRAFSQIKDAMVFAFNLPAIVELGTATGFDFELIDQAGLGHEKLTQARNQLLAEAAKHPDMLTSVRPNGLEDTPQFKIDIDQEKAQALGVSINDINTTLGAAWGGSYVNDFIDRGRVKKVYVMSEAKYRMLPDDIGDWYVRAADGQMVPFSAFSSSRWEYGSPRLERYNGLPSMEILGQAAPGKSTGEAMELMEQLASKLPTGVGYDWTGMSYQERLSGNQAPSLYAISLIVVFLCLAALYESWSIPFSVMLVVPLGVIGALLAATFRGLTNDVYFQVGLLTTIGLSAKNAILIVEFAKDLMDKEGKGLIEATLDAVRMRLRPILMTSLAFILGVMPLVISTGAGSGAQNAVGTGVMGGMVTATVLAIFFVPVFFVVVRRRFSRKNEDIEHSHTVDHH

molecule | measured-target | binding site in AcrB (cryo-EM)
NC1CCN(CC(O)COc2cccc(C(F)(F)F)c2)CC1 (stereo not shown) | E. coli AcrB (Escherichia coli) | distal drug-binding site
OC(CN[C@H]1[C@@H]2CNC[C@@H]21)COc1cc(Cl)cc(Cl)c1 (stereo partly shown) | E. coli AcrB (Escherichia coli) | distal drug-binding site

---

tested on: S. Typhimurium SL1344 (sifB::gfp) in RAW 264.7 macrophages; assay: SAFIRE macrophage assay: intracellular bacterial load (GFP signal within macrophages); assay type: cell-based, Salmonella enterica serotype Typhimurium; conditions: 25 uM; 'Toxic' given instead of a score
Each entry gets false if its 25 uM Avg Antibacterial Score stays under 9, and true if its 25 uM Avg Antibacterial Score is 9 or above.

Reference set, count: 5
molecule | cat
OC(COc1ccc(F)cc1F)CN1CCC(Nc2nccc(C(F)(F)F)n2)C1 (stereo not shown) [CU098] | true
COc1ccccc1OCC(O)CN1CCC(Nc2nccc(C(F)(F)F)n2)C1 (stereo not shown) [CU095] | true
OC(COc1ccc(F)cc1)CN1CCC(Nc2nccc(C(F)(F)F)n2)C1 (stereo not shown) [CU097] | false
CN(CC(O)COc1ccc(F)c(F)c1)C1CCNCC1 (stereo not shown) [CU178] | true
N[C@H]1CCN(CC(O)COc2ccc(Cl)c(Cl)c2)C1 (stereo partly shown) [CU194] | true

stdin: Hi, just wondering whether OC(CNC1CCNCC1)COc1cccc(Cl)c1 (stereo not shown) [CU199] shows 25 uM Avg Antibacterial Score of 9 or higher.
stdout: true

stdin: Hi, just wondering whether CN(C)C(=O)C1CCN(CC(O)COc2ccc(Cl)c(Cl)c2)CC1 (stereo not shown) [CU058] shows 25 uM Avg Antibacterial Score of 9 or higher.
stdout: true

stdin: Hi, just wondering whether OC(COc1ccc2c(c1)OCO2)CN1CCC(Nc2nccc(C(F)(F)F)n2)CC1 (stereo not shown) [CU080] shows 25 uM Avg Antibacterial Score of 9 or higher.
stdout: false

---

Form field: 5 uM Avg Cell # Score (one value per entry).
Test system: RAW 264.7 macrophages
Assay: SAFIRE macrophage assay: host toxicity (adherent macrophage count, morphology)
Format: cell-based
Conditions: 5 uM
Protocol: In SAFIRE, we used MATLAB software to count the number of macrophages that remain adherent and retain the red fluorescence of MitoTracker, an indicator of voltage across the mitochondrial inner membrane. […] Non-toxic analogs that reduced bacterial load by at least 60% at 5 µM and 25 µM in SAFIRE, as compared with DMSO, progressed and were evaluated in SAFIRE across eight or more concentrations, ranging from 0.001 µM to 50 µM (n = 2). […]
# output: bare number, no unit

molecule | 5 uM Avg Cell # Score
OC(COc1cccc(Br)c1)CN1CCC(Nc2nccc(C(F)(F)F)n2)C1 (stereo not shown) | 92
OC(COc1ccc(F)cc1)CN1CCC(Nc2nccc(C(F)(F)F)n2)CC1 (stereo not shown) | 74
OC(COc1ccc(Cl)c(Cl)c1)CN1CCC2(CCOCC2)C1 (stereo not shown) | 100
CCN(CC(O)COc1ccc(Cl)c(Cl)c1)CC1CCOC1 (stereo not shown) | 85
N[C@H]1CC[C@H](N2CC(COc3cc(Cl)cc(Cl)c3)OC2=O)CC1 (stereo partly shown) | 137

stdin: Give the measured 5 uM Avg Cell # Score of N[C@@H]1CCN(CC(O)COc2ccc(Cl)c(Cl)c2)C1 (stereo partly shown) .
stdout: 100

stdin: Give the measured 5 uM Avg Cell # Score of OC(COc1ccc(F)cc1)CN1CCC(Nc2ncccn2)CC1 (stereo not shown) .
stdout: 86

stdin: Give the measured 5 uM Avg Cell # Score of NC1CCN(C[C@H](O)COc2ccc(Cl)c(Cl)c2)C1 (stereo partly shown) .
stdout: 137

stdin: Give the measured 5 uM Avg Cell # Score of `c1ccc2c(CN3CCNCC3)cccc2c1` .
stdout: 113

stdin: Give the measured 5 uM Avg Cell # Score of NC1CCN(CC(O)COc2ccc(F)c(F)c2)CC1 (stereo not shown) .
stdout: 108
